Entries annotated with measured Z score
# System: Plasmodium falciparum
# assay.remarks: Primary screen in NF54 nanoGlo assay, in single point, at 2uM, 72h
# Format: functional, Erythrocyte
# run.parameters: timepoint 72 hour
Out of some 150,000 compounds screened, about 540 (0.36%) showed an effect of 50% or more. The full list was thinned out, with strong results kept by preference.

Known Z score results, listed for orientation:
[
  {
    "compound": "Cc1cc([C@H](Nc2ccccn2)c2ccccc2)c(NC(=O)c2ccccc2)s1",
    "Z score": -0.7
  },
  {
    "compound": "C[C@@H](C(=O)Nc1nnc[nH]1)c1ccc2c(c1)[nH]c1ccc(Cl)cc12",
    "Z score": 0.71
  }
]

CC(C)[C@H](NC(=O)Nc1cc(Cl)ccc1Cl)c1ncc[nH]1 has a reported Z score of 0.62

Item: Cc1ncsc1C(=O)N1CCC2(CCCCC2)C1 | Z score: -5.42

* * *

# System: Plasmodium falciparum
# assay.remarks: Primary screen in NF54 nanoGlo assay, in single point, at 2uM, 72h
# Type: functional, Erythrocyte
# run.parameters: timepoint 72 hour
About 540 (0.36%) of roughly 150,000 compounds showed an effect of 50% or more. For the sample, strong results were picked, then their nearest neighbours and some compounds at random.
readout.label: % Inhibition (%)
Hi! Could you send only the number? It should be in %, unit omitted.

molecule Cc1cc2ncc(-c3nc([C@H]4CCOC(C)(C)C4)no3)c(C)n2n1 , % Inhibition observed: -5

According to the records, this molecule CCc1nccc(-c2nccn2CCOc2ccccc2F)n1 displays % Inhibition of -5

Entry under test: CCn1c(CCc2cccc(NC(=O)Nc3ccccc3)c2)nc2ccccc21 . Its % Inhibition was 1

COC(=O)[C@H](CN)Oc1ccc(F)cc1 yielded % Inhibition of 2

Reported % Inhibition for COc1ccc(OC)c([C@H]2N(Cc3ccc(F)cc3)CCCN2Cc2ccccc2Cl)c1 was -3

Notebook: COc1ccc2nc(O)c(C(=O)Nc3ccc4c(c3F)CCNC4)cc2c1 , % Inhibition read as 99

// % Inhibition lookup, molecule = COC[C@](C)(CCO)NC(=O)Nc1cc(F)cc(Br)c1 , result: -13

Briefly, % Inhibition measured for COCCNC(=O)[C@@H](C)[C@@H]1CC[C@@]2(C)CC[C@H](NC(=O)CC(C)(C)C)[C@@H](C)[C@@H]2[C@H]1O : 31

% Inhibition recorded for this molecule, C[C@H]1[C@@H]2[C@@H](O)C([C@H](C)C(=O)NC3CCCC3)CC[C@@]2(C)CC[C@@H]1NC(=O)c1ccc(C#N)cc1 (stereo not given in full) , is 37

The molecule listed as c1ccn2cc(Cc3nc(C4CC4)cs3)nc2c1 has a reported % Inhibition of 5

* * *

# System: Plasmodium falciparum
# assay.remarks: Primary screen in NF54 nanoGlo assay, in single point, at 2uM, 72h
# Format: functional, Erythrocyte
# run.parameters: timepoint 72 hour
About 540 (0.36%) of roughly 150,000 compounds showed an effect of 50% or more. Shown is part of a subset that was picked to be rich in strong results.
Below, each entry is listed with its recorded % Inhibition.
Report the figure in % without appending any unit label.

Worked examples, 4 compounds total:
[
  {
    "item.smiles": "Cc1ccc(S(=O)(=O)c2c(NS(=O)(=O)c3ccc(F)cc3)n(CCc3ccccc3)c3nc4ccccc4nc23)cc1",
    "numeric.result": 98
  },
  {
    "item.smiles": "Cc1ccc(S(=O)(=O)c2c(NS(=O)(=O)c3ccc(F)cc3)n(C[C@H]3CCCO3)c3nc4ccccc4nc23)cc1",
    "numeric.result": 6
  },
  {
    "item.smiles": "Cc1ccc(S(=O)(=O)Nc2c(S(=O)(=O)c3ccc(C)cc3)c3nc4ccccc4nc3n2C[C@H]2CCCO2)cc1",
    "numeric.result": 48
  },
  {
    "item.smiles": "Cc1ccc(S(=O)(=O)c2c(NS(=O)(=O)c3ccc(Cl)cc3)n(-c3cc(C)cc(C)c3)c3nc4ccccc4nc23)cc1",
    "numeric.result": -6
  }
]

Short answer for COCCN(CCOC)C(=O)c1cnn(C)c1 : % Inhibition was -6

Briefly, % Inhibition measured for O=C(Nc1cccc(C(F)(F)F)c1)C1(F)C(F)(F)C(F)(F)C(F)(F)C(F)(F)C1(F)F : 2

response.value for CCC(=O)Nc1c(S(=O)(=O)c2ccccc2)c2nc3ccccc3nc2n1[C@@H](C)c1ccccc1 (field: % Inhibition) = -14

Sure, the documented % Inhibition for Cc1nc(C)c(C(=O)OCc2cccc3cccnc23)s1 is -18

// recorded % Inhibition for Cc1nc[nH]c1CN(Cc1c(C)nn(C)c1C)C(C)C : -7
